Data origin: patent US9833454B2

target or system: CYP1A2 (Homo sapiens)
Sequence (P05177 whole entry): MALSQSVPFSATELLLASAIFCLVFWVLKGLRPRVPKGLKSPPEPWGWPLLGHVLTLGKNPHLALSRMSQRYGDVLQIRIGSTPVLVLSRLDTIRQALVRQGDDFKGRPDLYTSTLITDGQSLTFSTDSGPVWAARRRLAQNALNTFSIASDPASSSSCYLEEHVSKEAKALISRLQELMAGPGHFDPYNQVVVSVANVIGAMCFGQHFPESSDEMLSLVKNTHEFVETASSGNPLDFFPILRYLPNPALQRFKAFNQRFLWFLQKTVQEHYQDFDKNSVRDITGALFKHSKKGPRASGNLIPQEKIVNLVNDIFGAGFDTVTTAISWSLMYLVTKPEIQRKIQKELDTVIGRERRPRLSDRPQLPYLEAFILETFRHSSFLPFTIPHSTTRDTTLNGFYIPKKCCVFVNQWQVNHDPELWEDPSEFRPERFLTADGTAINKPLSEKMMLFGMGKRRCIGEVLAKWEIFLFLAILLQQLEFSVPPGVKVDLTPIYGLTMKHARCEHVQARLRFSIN
test method notes: Inhibition of CYP enzymes in human liver microsomes (HLM), CYP1A2
condition description: read-out: IC50-30 min 1A2; HLM; 30 min preincubation with NADPH
measurement label: IC50

Please fill in: IC50 reported for CNc1nc(Nc2ccc(-n3cnc(C)n3)c(OC(F)F)c2)nc2c1C(C)(C)CC2c1ccc(F)cc1 (single isomer, unassigned) [Enantiomer 1] = > 40 µM

====

target or system: CYP2B6 (Homo sapiens, UniProt P20813)
test method notes: Inhibition of CYP enzymes in human liver microsomes (HLM), CYP2B6
Type: in vitro ADME
condition description: read-out: IC50-30 min 2B6, 30 min preincubation with NADPH
measurement label: IC50

Summary for this compound, CNc1nc(Nc2ccc(-n3cnc(C)n3)c(OC(F)F)c2)nc2c1C(C)(C)CC2c1ccc(F)cc1 (single isomer, unassigned) [Enantiomer 1] : IC50 is > 40 µM

====

target or system: CYP2C19 (Homo sapiens, UniProt P33261)
Sequence (P33261 whole entry): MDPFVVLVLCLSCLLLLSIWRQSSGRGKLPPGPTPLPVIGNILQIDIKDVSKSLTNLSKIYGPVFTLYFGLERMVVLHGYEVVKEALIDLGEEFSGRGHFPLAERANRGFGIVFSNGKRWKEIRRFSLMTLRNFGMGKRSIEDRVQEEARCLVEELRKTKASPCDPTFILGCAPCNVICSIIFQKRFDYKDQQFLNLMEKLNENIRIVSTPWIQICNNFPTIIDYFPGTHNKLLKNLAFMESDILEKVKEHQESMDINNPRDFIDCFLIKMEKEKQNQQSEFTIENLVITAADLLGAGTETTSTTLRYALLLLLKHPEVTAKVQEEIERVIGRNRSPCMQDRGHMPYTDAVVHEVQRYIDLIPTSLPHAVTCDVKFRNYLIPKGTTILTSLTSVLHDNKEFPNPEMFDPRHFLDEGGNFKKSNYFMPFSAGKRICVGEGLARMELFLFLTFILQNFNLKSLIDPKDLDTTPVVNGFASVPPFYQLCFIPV
test method notes: Inhibition of CYP enzymes in human liver microsomes (HLM), CYP2C19
condition description: IC50-0 min 2C19, HLM; 0 min preincubation
measurement label: IC50 (µM)
Write the number in µM without appending the unit.

The compound listed as CNc1nc(Nc2ccc(-n3cnc(C)n3)c(OC(F)F)c2)nc2c1C(C)(C)CC2c1ccc(F)cc1 (single isomer, unassigned) [Enantiomer 1] has a reported IC50 of 22.6

====

target or system: CYP2C19 (Homo sapiens, UniProt P33261)
test method notes: Inhibition of CYP enzymes in human liver microsomes (HLM), CYP2C19
condition description: IC50-30 min 2C19, HLM; 30 min preincubation with NADPH
measurement label: pIC50
Just the number, please; pIC50 means minus log10 of the concentration in mol/L.

Given item CNc1nc(Nc2ccc(-n3cnc(C)n3)c(OC(F)F)c2)nc2c1C(C)(C)CC2c1ccc(F)cc1 (single isomer, unassigned) [Enantiomer 1] , the value recorded as its pIC50 is 4.91

====

target or system: adenosine 2A receptor (Homo sapiens, UniProt P29274)
Sequence (P29274 whole entry): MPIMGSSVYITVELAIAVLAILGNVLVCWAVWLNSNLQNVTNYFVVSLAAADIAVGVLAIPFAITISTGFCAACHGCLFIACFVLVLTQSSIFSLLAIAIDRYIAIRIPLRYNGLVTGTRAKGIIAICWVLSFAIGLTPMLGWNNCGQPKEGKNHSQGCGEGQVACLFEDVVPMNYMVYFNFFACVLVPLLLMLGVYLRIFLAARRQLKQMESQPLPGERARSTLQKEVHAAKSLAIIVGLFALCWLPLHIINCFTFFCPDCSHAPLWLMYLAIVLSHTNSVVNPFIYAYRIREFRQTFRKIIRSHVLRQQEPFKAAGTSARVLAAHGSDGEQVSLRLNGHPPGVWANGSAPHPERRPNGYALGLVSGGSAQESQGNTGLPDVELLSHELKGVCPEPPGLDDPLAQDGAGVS
measurement label: IC50 (nM)
Provide only the numeric value, understood in nM.

Reported IC50 (adenosine 2A receptor (Homo sapiens, UniProt P29274)) for entry CNc1nc(Nc2ccc(-n3cnc(C)n3)c(OC(F)F)c2)nc2c1C(C)(C)CC2c1ccc(F)cc1 (single isomer, unassigned) [Enantiomer 1] is 2000

====

target or system: UniProt P20813
Sequence (P20813 1-491): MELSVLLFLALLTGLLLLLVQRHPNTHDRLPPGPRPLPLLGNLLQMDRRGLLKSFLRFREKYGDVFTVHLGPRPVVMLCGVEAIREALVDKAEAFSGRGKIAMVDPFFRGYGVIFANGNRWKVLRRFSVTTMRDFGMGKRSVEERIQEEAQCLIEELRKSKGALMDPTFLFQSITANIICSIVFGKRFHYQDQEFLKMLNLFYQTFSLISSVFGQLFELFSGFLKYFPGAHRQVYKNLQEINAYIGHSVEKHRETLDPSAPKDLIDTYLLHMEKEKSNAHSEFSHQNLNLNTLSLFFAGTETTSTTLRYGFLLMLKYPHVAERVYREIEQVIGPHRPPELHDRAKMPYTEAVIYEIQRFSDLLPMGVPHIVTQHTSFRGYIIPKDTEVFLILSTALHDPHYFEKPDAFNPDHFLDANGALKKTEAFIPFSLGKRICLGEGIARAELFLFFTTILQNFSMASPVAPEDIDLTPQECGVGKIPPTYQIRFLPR
test method notes: Inhibition of CYP enzymes in human liver microsomes (HLM), CYP2B6
Type: in vitro ADME
condition description: 0 min preincubation, read-out: IC50-0 min 2B6
pIC50: −log10 of the molar value.
measurement label: pIC50

get_value(item= CNc1nc(Nc2ccc(-n3cnc(C)n3)c(OC(F)F)c2)nc2c1C(C)(C)CC2c1ccc(F)cc1 (single isomer, unassigned) [Enantiomer 1] , readout=pIC50) returns < 4.40

====

target or system: CYP2C9 (Homo sapiens)
Sequence (P11712 whole entry): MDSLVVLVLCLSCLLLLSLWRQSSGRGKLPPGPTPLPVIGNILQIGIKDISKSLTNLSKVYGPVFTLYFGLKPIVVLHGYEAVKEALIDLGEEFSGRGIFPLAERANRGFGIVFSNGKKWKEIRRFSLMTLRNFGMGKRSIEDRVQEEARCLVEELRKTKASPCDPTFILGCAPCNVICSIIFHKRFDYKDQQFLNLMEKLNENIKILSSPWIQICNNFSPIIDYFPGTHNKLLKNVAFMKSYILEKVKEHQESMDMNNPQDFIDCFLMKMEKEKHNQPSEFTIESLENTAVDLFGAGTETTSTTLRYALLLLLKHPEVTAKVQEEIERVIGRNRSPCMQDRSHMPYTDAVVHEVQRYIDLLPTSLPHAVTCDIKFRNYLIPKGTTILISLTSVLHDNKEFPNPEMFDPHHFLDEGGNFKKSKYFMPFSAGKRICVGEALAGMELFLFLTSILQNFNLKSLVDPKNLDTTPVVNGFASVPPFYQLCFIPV
test method notes: Inhibition of recombinant CYP enzymes (rCYP), CYP2C9
Assay type: in vitro ADME
condition description: average of two experiments, read-out: rCYP IC50 2C9
measurement label: IC50 (nM)
# value in nM; strip the unit string

Reported IC50 for CNc1nc(Nc2ccc(-n3cnc(C)n3)c(OC(F)F)c2)nc2c1C(C)(C)CC2c1ccc(F)cc1 (single isomer, unassigned) [Enantiomer 1] was 1300

====

target or system: CYP3A4 (Homo sapiens, UniProt P08684)
Sequence (P08684 whole entry): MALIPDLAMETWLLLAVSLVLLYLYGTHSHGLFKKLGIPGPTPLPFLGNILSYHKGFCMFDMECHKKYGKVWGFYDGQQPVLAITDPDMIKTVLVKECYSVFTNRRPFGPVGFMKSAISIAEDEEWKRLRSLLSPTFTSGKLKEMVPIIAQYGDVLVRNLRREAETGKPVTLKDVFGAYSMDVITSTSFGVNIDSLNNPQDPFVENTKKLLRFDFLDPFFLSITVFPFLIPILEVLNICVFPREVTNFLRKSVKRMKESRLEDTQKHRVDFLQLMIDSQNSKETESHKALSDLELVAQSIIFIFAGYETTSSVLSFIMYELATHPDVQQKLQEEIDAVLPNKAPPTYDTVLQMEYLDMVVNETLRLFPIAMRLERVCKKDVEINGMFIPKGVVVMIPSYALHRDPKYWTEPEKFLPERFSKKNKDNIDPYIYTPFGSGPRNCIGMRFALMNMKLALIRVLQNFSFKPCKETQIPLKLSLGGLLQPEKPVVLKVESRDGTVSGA
test method notes: HLM CYP3A4 Inactivation Assay
Assay type: in vitro ADME
condition description: HLM; all tested concentrations 0.31-20 μM; up to 25 min
measurement label: apparent rates of inactivation (kobs) with testosterone

apparent rates of inactivation (kobs) with testosterone measured on CNc1nc(Nc2ccc(-n3cnc(C)n3)c(OC(F)F)c2)nc2c1C(C)(C)CC2c1ccc(F)cc1 (single isomer, unassigned) [Enantiomer 1] = < 0.006 min⁻¹

====

target or system: 43 receptor and Enzyme panel (all others)
test method notes: In vitro safety: 43 receptor and enzyme panel, all others
condition description: targets other than A2A, DAT, D1, MAO A, read-out: 43 receptor and Enzyme IC50s, all others
measurement label: IC50

Tested on 43 receptor and Enzyme panel (all others): CNc1nc(Nc2ccc(-n3cnc(C)n3)c(OC(F)F)c2)nc2c1C(C)(C)CC2c1ccc(F)cc1 (single isomer, unassigned) [Enantiomer 1] . Observed IC50: > 10 µM

====

target or system: CYP2C9 (Homo sapiens)
test method notes: Inhibition of CYP enzymes in human liver microsomes (HLM), CYP2C9
Format: in vitro ADME
condition description: HLM; 0 min preincubation; read-out: IC50-0 min 2C9
measurement label: pIC50
Keep in mind that pIC50 stands for -log10 of concentration in molar terms.

Per the record, CNc1nc(Nc2ccc(-n3cnc(C)n3)c(OC(F)F)c2)nc2c1C(C)(C)CC2c1ccc(F)cc1 (single isomer, unassigned) [Enantiomer 1] has pIC50 of 4.90

====

target or system: CYP2B6 (Homo sapiens)
test method notes: Inhibition of recombinant CYP enzymes (rCYP), CYP2B6
Format: in vitro ADME
condition description: average of two experiments, read-out: rCYP IC50 2B6
pIC50: −log10 of the molar value.
measurement label: pIC50

Observed pIC50, CYP2B6 (Homo sapiens), CNc1nc(Nc2ccc(-n3cnc(C)n3)c(OC(F)F)c2)nc2c1C(C)(C)CC2c1ccc(F)cc1 (single isomer, unassigned) [Enantiomer 1] : < 4.70

====

target or system: monoamine oxidase A (Homo sapiens)
Sequence (P21397 whole entry): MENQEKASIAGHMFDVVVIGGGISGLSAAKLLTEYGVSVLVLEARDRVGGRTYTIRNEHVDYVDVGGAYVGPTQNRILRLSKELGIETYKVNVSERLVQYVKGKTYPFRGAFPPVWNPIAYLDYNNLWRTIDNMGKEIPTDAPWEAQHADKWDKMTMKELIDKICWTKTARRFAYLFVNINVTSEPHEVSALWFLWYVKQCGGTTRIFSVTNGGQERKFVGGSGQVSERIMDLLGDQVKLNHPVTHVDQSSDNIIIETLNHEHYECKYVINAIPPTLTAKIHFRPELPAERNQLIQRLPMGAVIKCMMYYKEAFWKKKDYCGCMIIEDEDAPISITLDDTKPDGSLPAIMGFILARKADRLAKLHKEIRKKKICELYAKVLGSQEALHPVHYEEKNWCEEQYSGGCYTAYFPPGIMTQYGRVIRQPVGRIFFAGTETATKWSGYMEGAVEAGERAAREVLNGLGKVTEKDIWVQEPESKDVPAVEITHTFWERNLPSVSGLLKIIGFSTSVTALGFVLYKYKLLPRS
measurement label: IC50

Measured IC50, CNc1nc(Nc2ccc(-n3cnc(C)n3)c(OC(F)F)c2)nc2c1C(C)(C)CC2c1ccc(F)cc1 (single isomer, unassigned) [Enantiomer 1] : 8 to 10 µM

====

target or system: CYP1A2 (Homo sapiens)
test method notes: Inhibition of CYP enzymes in human liver microsomes (HLM), CYP1A2
measurement label: IC50

Observed IC50 on CYP1A2 (Homo sapiens), entry CNc1nc(Nc2ccc(-n3cnc(C)n3)c(OC(F)F)c2)nc2c1C(C)(C)CC2c1ccc(F)cc1 (single isomer, unassigned) [Enantiomer 1] , equals > 40 µM

====

target or system: dopamine receptor 1 (Homo sapiens, UniProt P21728)
Sequence (P21728 whole entry): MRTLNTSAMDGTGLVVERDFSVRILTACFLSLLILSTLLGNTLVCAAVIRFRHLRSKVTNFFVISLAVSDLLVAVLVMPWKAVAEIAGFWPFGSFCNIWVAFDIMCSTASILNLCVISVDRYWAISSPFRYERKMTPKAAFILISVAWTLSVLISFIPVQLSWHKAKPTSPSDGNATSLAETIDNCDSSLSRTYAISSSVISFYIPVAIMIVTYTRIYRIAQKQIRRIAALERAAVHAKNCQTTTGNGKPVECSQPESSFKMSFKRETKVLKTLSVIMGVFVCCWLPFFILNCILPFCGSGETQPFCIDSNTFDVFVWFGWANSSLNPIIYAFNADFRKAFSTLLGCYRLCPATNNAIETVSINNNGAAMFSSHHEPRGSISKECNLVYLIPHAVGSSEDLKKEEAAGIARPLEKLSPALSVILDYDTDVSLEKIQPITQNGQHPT
test method notes: In vitro safety: off-target receptor binding and enzyme assays, D1
condition description: in vitro safety panel
pIC50: −log10 of the molar value.
measurement label: pIC50

Form: compound = CNc1nc(Nc2ccc(-n3cnc(C)n3)c(OC(F)F)c2)nc2c1C(C)(C)CC2c1ccc(F)cc1 (single isomer, unassigned) [Enantiomer 1] ; pIC50 = 5.00 to 5.10

====

target or system: dopamine transporter (Homo sapiens)
Sequence (Q01959 whole entry): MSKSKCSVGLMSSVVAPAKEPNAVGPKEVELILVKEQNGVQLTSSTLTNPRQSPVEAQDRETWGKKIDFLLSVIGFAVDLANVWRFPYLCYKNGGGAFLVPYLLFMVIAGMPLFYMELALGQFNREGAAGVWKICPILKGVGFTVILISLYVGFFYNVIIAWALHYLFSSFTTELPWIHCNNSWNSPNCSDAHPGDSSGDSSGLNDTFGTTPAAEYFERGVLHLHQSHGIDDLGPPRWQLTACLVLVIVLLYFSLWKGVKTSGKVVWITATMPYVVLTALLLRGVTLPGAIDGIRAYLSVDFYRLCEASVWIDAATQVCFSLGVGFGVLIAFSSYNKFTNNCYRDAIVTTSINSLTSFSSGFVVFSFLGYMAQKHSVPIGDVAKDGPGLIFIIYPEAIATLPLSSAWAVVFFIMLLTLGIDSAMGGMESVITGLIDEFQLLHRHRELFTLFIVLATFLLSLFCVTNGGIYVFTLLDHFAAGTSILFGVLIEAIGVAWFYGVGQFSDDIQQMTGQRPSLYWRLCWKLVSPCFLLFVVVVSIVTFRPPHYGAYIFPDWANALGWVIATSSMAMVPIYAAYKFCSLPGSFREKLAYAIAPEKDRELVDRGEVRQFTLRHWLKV
measurement label: IC50

dopamine transporter (Homo sapiens) data for CNc1nc(Nc2ccc(-n3cnc(C)n3)c(OC(F)F)c2)nc2c1C(C)(C)CC2c1ccc(F)cc1 (single isomer, unassigned) [Enantiomer 1] ; its IC50: 8 to 10 µM
